Experiment: In vivo PK (cannulated rat, IV and PO)
Settings: rat, plasma, iv, 1 mg/kg, IV 1 mg/kg, mean of 3 rats
measurement-type: AUC(0-t) (ng·h/mL)
Just the number in ng·h/mL, nothing appended.

CC(Nc1ncnc2[nH]cnc12)c1nc2cccc(Cl)c2c(=O)n1-c1ccccc1 (stereo not shown) has a reported AUC(0-t) of 1100

* * *

Experiment: In vivo PK (cannulated rat, IV and PO)
Conditions: rat, plasma, iv, 1 mg/kg, IV 1 mg/kg (Table 4)
measurement-type: clearance (mL/min/kg)
Just the number in mL/min/kg, nothing appended.

CC(Nc1ncnc2[nH]cnc12)c1nc2cccc(Cl)c2c(=O)n1-c1ccccc1 (stereo not shown) [Compound A] has a reported clearance of 15.2

* * *

Biological target: PI3Kα (p110α) (Homo sapiens)
Sequence (P42336 whole entry, species assumed): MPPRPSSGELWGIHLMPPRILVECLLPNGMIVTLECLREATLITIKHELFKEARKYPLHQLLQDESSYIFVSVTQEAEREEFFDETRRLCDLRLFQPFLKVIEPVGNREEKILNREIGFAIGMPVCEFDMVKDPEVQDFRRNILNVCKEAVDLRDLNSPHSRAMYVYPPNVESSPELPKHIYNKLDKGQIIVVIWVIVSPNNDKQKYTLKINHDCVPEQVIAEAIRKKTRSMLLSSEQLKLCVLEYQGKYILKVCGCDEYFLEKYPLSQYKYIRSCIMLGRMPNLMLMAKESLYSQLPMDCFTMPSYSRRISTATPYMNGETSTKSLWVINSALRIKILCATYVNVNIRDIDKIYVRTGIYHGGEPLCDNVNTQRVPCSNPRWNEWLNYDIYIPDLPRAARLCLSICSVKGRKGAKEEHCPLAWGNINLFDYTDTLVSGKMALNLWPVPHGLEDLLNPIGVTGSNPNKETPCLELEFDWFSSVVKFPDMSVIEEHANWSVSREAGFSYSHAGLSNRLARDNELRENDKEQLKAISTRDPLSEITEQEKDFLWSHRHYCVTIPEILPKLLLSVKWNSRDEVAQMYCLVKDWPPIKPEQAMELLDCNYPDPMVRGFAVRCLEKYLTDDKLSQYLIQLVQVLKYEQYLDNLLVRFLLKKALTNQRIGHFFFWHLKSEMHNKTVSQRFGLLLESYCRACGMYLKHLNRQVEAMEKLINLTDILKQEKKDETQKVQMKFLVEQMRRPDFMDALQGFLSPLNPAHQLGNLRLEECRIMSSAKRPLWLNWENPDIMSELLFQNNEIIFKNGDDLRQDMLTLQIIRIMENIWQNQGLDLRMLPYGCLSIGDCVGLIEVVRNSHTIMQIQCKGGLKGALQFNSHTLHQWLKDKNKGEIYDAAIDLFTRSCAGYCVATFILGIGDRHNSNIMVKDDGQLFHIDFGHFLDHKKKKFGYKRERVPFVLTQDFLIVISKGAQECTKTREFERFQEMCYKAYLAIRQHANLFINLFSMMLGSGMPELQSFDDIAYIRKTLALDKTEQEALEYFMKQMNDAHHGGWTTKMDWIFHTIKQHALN
Sequence (P27986 whole entry partner, species assumed): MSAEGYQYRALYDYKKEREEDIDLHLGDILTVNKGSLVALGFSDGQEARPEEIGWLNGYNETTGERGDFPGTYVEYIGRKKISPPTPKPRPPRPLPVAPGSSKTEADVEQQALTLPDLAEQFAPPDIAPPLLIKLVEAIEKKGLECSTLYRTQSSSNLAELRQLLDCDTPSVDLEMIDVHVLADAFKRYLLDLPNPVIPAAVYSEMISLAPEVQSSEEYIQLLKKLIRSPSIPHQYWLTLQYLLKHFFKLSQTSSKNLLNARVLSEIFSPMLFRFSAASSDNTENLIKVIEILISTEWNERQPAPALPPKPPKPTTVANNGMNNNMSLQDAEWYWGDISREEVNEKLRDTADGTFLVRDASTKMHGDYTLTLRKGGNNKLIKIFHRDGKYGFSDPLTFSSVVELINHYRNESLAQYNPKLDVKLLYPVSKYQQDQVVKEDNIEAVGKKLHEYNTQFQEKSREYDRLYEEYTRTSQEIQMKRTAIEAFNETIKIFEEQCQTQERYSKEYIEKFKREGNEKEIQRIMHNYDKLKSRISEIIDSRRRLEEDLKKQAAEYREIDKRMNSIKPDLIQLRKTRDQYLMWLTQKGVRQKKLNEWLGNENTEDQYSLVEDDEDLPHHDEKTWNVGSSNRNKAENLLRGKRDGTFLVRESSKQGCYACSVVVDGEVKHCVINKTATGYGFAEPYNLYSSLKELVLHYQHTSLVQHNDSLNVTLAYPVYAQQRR
measurement-type: pIC50
A value of pIC50 is the negative decimal logarithm of a concentration given in moles per litre.

`C[C@H](Nc1ncnc2[nH]cnc12)c1nc2ccc(F)cc2c(=O)n1-c1ccccc1` has a reported pIC50 of 5.11

* * *

Tested on: PC3
Assay: pAkt pathway inhibition, PC3
Type: cell-based
Settings: Homo sapiens, PC-3; PC3, Prostate
measurement-type: EC50

Value sought: EC50, system PC3, item CC(Nc1ncnc2[nH]cnc12)c1nc2cccc(Cl)c2c(=O)n1-c1ccccc1 (stereo not shown) . Result: 155 nM

* * *

Test: In vivo PK (cannulated rat, IV and PO)
Conditions: rat, plasma, iv, 1 mg/kg, IV 1 mg/kg, individual rats
measurement-type: AUC(0-t) (ng·h/mL)
Just the number in ng·h/mL, nothing appended.

CC(Nc1ncnc2[nH]cnc12)c1nc2cccc(Cl)c2c(=O)n1-c1ccccc1 (stereo not shown) has a reported AUC(0-t) of 1040

* * *

Test system: pAkt in solid tumor
Assay: pAkt activity, solid tumor
Format: cell-based
Settings: N = 14
measurement-type: EC50 (nM)
Just the number in nM, nothing appended.

CC(Nc1ncnc2[nH]cnc12)c1nc2cccc(Cl)c2c(=O)n1-c1ccccc1 (centres unmarked) has a reported EC50 of 188

`C[C@H](Nc1ncnc2[nH]cnc12)c1nc2ccc(F)cc2c(=O)n1-c1ccccc1` has a reported EC50 of 987

* * *

Test: In vivo PK (cannulated rat, IV and PO)
Settings: rat, plasma, iv, 1 mg/kg, IV 1 mg/kg, mean of 3 rats; read-out: Vz
measurement-type: Vd (L/kg)
Just the number in L/kg, nothing appended.

CC(Nc1ncnc2[nH]cnc12)c1nc2cccc(Cl)c2c(=O)n1-c1ccccc1 (stereo not shown) [Compound A] has a reported Vd of 2.99

* * *

Test: In vivo PK (cannulated rat, IV and PO)
Conditions: rat, plasma, po, 3 mg/kg, PO 3 mg/kg, individual rats
measurement-type: Tmax (h)
Just the number in h, nothing appended.

CC(Nc1ncnc2[nH]cnc12)c1nc2cccc(Cl)c2c(=O)n1-c1ccccc1 (stereo not shown) [Compound A] has a reported Tmax of 1

* * *

Target: PI3Kγ (p110γ) (Homo sapiens)
Sequence (P48736 whole entry, species assumed): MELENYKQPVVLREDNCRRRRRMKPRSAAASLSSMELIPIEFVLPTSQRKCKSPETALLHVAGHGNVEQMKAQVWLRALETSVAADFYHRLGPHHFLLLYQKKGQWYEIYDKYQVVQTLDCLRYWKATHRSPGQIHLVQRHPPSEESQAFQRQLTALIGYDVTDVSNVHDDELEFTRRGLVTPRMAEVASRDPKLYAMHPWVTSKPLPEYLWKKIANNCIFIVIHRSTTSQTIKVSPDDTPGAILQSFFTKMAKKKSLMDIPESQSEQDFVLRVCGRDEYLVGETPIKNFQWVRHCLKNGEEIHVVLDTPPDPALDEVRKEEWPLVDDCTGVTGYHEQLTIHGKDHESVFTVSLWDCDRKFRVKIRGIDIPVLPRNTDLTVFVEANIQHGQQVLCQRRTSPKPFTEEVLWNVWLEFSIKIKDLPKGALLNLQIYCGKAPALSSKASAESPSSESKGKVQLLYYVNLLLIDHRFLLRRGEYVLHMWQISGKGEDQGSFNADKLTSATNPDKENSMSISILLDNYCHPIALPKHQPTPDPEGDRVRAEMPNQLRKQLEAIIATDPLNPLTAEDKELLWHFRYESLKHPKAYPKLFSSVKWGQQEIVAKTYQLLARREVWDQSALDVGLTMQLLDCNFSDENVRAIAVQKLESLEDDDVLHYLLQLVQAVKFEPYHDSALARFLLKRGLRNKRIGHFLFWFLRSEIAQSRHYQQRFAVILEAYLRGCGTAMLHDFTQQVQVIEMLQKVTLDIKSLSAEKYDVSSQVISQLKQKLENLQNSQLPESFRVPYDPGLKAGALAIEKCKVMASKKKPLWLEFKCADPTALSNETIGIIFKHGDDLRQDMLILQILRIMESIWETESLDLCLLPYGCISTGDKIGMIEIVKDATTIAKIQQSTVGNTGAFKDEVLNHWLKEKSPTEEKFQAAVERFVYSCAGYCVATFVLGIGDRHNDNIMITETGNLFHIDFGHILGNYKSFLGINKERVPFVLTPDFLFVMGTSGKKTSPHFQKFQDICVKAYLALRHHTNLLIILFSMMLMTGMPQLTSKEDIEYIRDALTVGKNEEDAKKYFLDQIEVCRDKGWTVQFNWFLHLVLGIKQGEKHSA
measurement-type: IC50 (nM)
Just the number in nM, nothing appended.

Value sought: IC50, system PI3Kγ (p110γ) (Homo sapiens), item `C[C@H](Nc1ncnc2[nH]cnc12)c1nc2ccc(F)cc2c(=O)n1-c1ccccc1` . Result: 1000

* * *

Assay: Dog PK
Assay type: in vivo
Conditions: plasma, PO 1 mg/kg
measurement-type: AUC (ng·h/mL)
Just the number in ng·h/mL, nothing appended.

CC(Nc1ncnc2[nH]cnc12)c1nc2cccc(Cl)c2c(=O)n1-c1ccccc1 (stereo not shown) has a reported AUC of 4450

* * *

Assay: Dog PK
Format: in vivo
Settings: plasma, IV 1 mg/kg, read-out: Vz
measurement-type: Vd (L/kg)
Just the number in L/kg, nothing appended.

CC(Nc1ncnc2[nH]cnc12)c1nc2cccc(Cl)c2c(=O)n1-c1ccccc1 (stereo not shown) has a reported Vd of 0.891

* * *

Test: In vivo PK (cannulated rat, IV and PO)
Settings: rat, plasma, po, 30 mg/kg, PO 30 mg/kg, individual rats; read-out: Cmax
measurement-type: Cmax (ng/mL)
Just the number in ng/mL, nothing appended.

CC(Nc1ncnc2[nH]cnc12)c1nc2cccc(Cl)c2c(=O)n1-c1ccccc1 (stereo not shown) [Compound A] has a reported Cmax of 5800

* * *

measurement-type: pIC50
A value of pIC50 is the negative decimal logarithm of a concentration given in moles per litre.

Value sought: pIC50, system PI3K p110β (Homo sapiens, UniProt P42338), item `C[C@H](Nc1ncnc2[nH]cnc12)c1nc2ccc(F)cc2c(=O)n1-c1ccccc1` . Result: 6.82

* * *

Test: In vivo PK (cannulated rat, IV and PO)
Details: rat, plasma, iv, 1 mg/kg, IV 1 mg/kg, individual rats; read-out: Vss
measurement-type: Vd (L/kg)
Just the number in L/kg, nothing appended.

CC(Nc1ncnc2[nH]cnc12)c1nc2cccc(Cl)c2c(=O)n1-c1ccccc1 (stereo not shown) [Compound A] has a reported Vd of 2.64

* * *

measurement-type: IC50

Value sought: IC50, system UniProt:O00329, item `C[C@H](Nc1ncnc2[nH]cnc12)c1nc2ccc(F)cc2c(=O)n1-c1ccccc1` . Result: 9.3 nM

* * *

Test system: U87MG
Assay: pAkt pathway inhibition, U87MG
Type: cell-based
Conditions: Homo sapiens, U-87 MG, Glioma
measurement-type: EC50 (nM)
Just the number in nM, nothing appended.

Value sought: EC50, system U87MG, item CC(Nc1ncnc2[nH]cnc12)c1nc2cccc(Cl)c2c(=O)n1-c1ccccc1 (stereo not shown) . Result: 17

* * *

Assay: In vivo PK (cannulated rat, IV and PO)
Settings: rat, plasma, po, 3 mg/kg, PO 3 mg/kg (Table 4)
measurement-type: Tmax (h)
Just the number in h, nothing appended.

CC(Nc1ncnc2[nH]cnc12)c1nc2cccc(Cl)c2c(=O)n1-c1ccccc1 (stereo not shown) [Compound A] has a reported Tmax of 1.3

* * *

Assay: In vivo PK (cannulated rat, IV and PO)
Conditions: rat, plasma, po, 30 mg/kg, PO 30 mg/kg, individual rats
measurement-type: Tmax

CC(Nc1ncnc2[nH]cnc12)c1nc2cccc(Cl)c2c(=O)n1-c1ccccc1 (stereo not shown) [Compound A] has a reported Tmax of 4 h

* * *

Assay: Dog PK
Format: in vivo
Conditions: plasma, PO 1 mg/kg
Description: The pharmacokinetics of Compound A in mouse and dogs were also examined. […] The results of Tmax (time of maximum observed concentration), Cmax (maximum concentration in plasma measured), AUC (area under the curve for plasma concentration versus time), Cl (total body clearance), and Vz (volume of distribution) were summarized in Table 4. As used herein, the mark ‘-’ represents data not relevant. […]
measurement-type: Tmax (h)
Just the number in h, nothing appended.

CC(Nc1ncnc2[nH]cnc12)c1nc2cccc(Cl)c2c(=O)n1-c1ccccc1 (stereo not shown) has a reported Tmax of 2.3

* * *

Test: In vivo PK (cannulated rat, IV and PO)
Details: rat, plasma, po, 3 mg/kg, PO 3 mg/kg, individual rats; read-out: Cmax
measurement-type: Cmax (ng/mL)
Just the number in ng/mL, nothing appended.

CC(Nc1ncnc2[nH]cnc12)c1nc2cccc(Cl)c2c(=O)n1-c1ccccc1 (stereo not shown) has a reported Cmax of 568

* * *

Assay: In vivo PK (cannulated rat, IV and PO)
Settings: rat, plasma, po, 3 mg/kg, PO 3 mg/kg, mean of 3 rats; read-out: Bioavailability
measurement-type: Bioavailability (%)
Just the number in %, nothing appended.

CC(Nc1ncnc2[nH]cnc12)c1nc2cccc(Cl)c2c(=O)n1-c1ccccc1 (stereo not shown) has a reported Bioavailability of 59

* * *

Biological target: PI3K p110α (Mus musculus, UniProt P42337)
Sequence (P42337 whole entry): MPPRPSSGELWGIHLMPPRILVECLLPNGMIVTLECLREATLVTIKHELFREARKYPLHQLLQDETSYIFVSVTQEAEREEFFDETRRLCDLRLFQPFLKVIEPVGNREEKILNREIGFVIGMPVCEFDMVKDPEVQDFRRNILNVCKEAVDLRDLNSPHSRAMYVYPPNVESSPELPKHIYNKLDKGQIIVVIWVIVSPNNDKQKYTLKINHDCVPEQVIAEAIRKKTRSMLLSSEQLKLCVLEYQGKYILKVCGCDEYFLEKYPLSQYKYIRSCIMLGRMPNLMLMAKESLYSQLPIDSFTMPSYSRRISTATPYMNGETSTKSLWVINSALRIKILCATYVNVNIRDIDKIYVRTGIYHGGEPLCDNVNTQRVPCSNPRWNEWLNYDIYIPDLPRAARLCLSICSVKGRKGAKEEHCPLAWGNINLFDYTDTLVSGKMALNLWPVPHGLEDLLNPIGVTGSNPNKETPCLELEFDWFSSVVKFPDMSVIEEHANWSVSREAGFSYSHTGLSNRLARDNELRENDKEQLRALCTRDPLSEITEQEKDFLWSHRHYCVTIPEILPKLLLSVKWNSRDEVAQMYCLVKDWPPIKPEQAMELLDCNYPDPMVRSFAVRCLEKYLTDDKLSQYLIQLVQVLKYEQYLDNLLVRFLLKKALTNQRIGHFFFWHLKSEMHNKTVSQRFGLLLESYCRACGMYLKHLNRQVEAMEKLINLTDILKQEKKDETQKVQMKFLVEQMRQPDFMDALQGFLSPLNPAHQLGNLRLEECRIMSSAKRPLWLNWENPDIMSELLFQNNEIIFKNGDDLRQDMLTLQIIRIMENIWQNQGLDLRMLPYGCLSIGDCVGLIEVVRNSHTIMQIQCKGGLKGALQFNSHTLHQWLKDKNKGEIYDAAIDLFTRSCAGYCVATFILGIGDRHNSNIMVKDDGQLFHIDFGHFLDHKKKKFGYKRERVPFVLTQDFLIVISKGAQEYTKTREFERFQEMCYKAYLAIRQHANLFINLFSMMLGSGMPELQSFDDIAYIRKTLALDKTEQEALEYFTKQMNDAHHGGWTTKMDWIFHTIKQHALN
Sequence (P26450 whole entry partner): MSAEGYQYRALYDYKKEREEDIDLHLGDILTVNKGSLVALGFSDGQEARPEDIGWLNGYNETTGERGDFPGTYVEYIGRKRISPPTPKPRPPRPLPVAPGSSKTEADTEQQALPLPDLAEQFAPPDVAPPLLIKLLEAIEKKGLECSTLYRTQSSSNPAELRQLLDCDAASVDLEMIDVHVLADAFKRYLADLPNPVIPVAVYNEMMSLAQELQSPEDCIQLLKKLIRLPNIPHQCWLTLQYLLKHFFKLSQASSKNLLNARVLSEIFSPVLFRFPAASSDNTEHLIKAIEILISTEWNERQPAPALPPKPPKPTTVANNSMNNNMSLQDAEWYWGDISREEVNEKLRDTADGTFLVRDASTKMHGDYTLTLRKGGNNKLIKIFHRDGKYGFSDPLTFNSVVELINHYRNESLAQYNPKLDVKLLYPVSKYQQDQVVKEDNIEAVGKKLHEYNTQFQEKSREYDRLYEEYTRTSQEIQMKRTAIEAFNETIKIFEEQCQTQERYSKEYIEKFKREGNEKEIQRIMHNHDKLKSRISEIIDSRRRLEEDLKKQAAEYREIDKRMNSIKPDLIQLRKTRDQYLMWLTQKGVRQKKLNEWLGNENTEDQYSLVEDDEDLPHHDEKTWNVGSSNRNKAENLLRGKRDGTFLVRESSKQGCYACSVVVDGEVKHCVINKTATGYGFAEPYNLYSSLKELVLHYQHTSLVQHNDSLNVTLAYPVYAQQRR
Assay: Cellular p110α signaling: PDGF-stimulated MEFs, pAkt Western blot
Assay type: cell-based, murine
measurement-type: pEC50
A value of pEC50 is the negative decimal logarithm of a concentration given in moles per litre.

CC(Nc1ncnc2[nH]cnc12)c1nc2cccc(Cl)c2c(=O)n1-c1ccccc1 (stereo not shown) has a reported pEC50 of 5.22

* * *

Target: PI3K p110δ (Homo sapiens, UniProt O00329)
Construct: endogenous in cells
Test: SelectScreen in vitro kinase inhibitor assay, p110δ
measurement-type: pIC50
A value of pIC50 is the negative decimal logarithm of a concentration given in moles per litre.

`C[C@H](Nc1ncnc2[nH]cnc12)c1nc2ccc(F)cc2c(=O)n1-c1ccccc1` has a reported pIC50 of 9.05

* * *

System: SF-295
Experiment: pAkt pathway inhibition, SF-295
Type: cell-based
Conditions: Homo sapiens; SF-295, CNS
measurement-type: EC50 (nM)
Just the number in nM, nothing appended.

CC(Nc1ncnc2[nH]cnc12)c1nc2cccc(Cl)c2c(=O)n1-c1ccccc1 (stereo not shown) [Compound A] has a reported EC50 of 162

* * *

Assay: In vivo PK (cannulated rat, IV and PO)
Details: rat, plasma, po, 30 mg/kg, PO 30 mg/kg, mean of 3 rats
measurement-type: AUC(0-inf) (ng·h/mL)
Just the number in ng·h/mL, nothing appended.

CC(Nc1ncnc2[nH]cnc12)c1nc2cccc(Cl)c2c(=O)n1-c1ccccc1 (stereo not shown) [Compound A] has a reported AUC(0-inf) of 40000
